# System Under Test: the molecule itself
# Assay Summary: FRET or BRET; as a1 but with 2 mM ATP (ATP-bound); MR^NBD complexes with Mre11; 50 mM Tris, 200 mM NaCl, 5 mM MgCl2, pH 7.5, 50 °C; percent of LRET-visible molecules only
# maps each entry to its percent of molecules in the closed state

# Protein, percent of molecules in the closed state (%)
data = [
    ("P. furiosus Rad50 nucleotide binding domain L51C/L828A, LRET-labelled (domain or fragment, Pyrococcus furiosus, Tb3+ chelate DTPA-cs124-EMPH (donor) or Bodipy FL maleimide (acceptor) on the cysteine L51C, Rad50, Pyrococcus furiosus, amino acids 1-195; linker that replaces most of the coiled-coil and the Zn-hook; Rad50, Pyrococcus furiosus, amino acids 709-882; Measured within the MR^NBD complex with Mre11; also called L828A MR^NBD (LRET); source: labelled and passed over Superdex 200 Increase) MKLERVTVKNFRSHSDTVVEFKEGINLIIGQNGSGKSSLLDAILVGLYWPCRIKDIKKDEFTKVGARDTYIDLIFEKDGTKYRITRRFLKGYSSGEIHAMKRLVGNEWKHVTEPSSKAISAFMEKLIPYNIFLNAIYIRQGQIDAILESDEAREKVVREVLNLDKFETAYKKLSELKKTINNRIKEYRDILARTEGGAGGAGGRERVKKEIKDLEKAKDFTEELIEKVKKYKALAREAALSKIGELASEIFAEFTEGKYSEVVVRAEENKVRLFVVWEGKERPLTFLSGGERIALGLAFRLAMSLYLAGEISLLILDEPTPYADEERRRKLITIMERYLKKIPQVILVSHDEELKDAADHVIRISLENGSSKVEVVS", 54),
    ("P. furiosus Rad50 nucleotide binding domain L51C/D829N, LRET-labelled (domain or fragment, Pyrococcus furiosus, Tb3+ chelate DTPA-cs124-EMPH (donor) or Bodipy FL maleimide (acceptor) on the cysteine L51C, Rad50, Pyrococcus furiosus, amino acids 1-195; linker that replaces most of the coiled-coil and the Zn-hook; Rad50, Pyrococcus furiosus, amino acids 709-882; Measured within the MR^NBD complex with Mre11; also called D829N MR^NBD (LRET); source: labelled and passed over Superdex 200 Increase) MKLERVTVKNFRSHSDTVVEFKEGINLIIGQNGSGKSSLLDAILVGLYWPCRIKDIKKDEFTKVGARDTYIDLIFEKDGTKYRITRRFLKGYSSGEIHAMKRLVGNEWKHVTEPSSKAISAFMEKLIPYNIFLNAIYIRQGQIDAILESDEAREKVVREVLNLDKFETAYKKLSELKKTINNRIKEYRDILARTEGGAGGAGGRERVKKEIKDLEKAKDFTEELIEKVKKYKALAREAALSKIGELASEIFAEFTEGKYSEVVVRAEENKVRLFVVWEGKERPLTFLSGGERIALGLAFRLAMSLYLAGEISLLILDEPTPYLNEERRRKLITIMERYLKKIPQVILVSHDEELKDAADHVIRISLENGSSKVEVVS", 33),
    ("P. furiosus Rad50 nucleotide binding domain L51C/D829A, LRET-labelled (domain or fragment, Pyrococcus furiosus, Tb3+ chelate DTPA-cs124-EMPH (donor) or Bodipy FL maleimide (acceptor) on the cysteine L51C, Rad50, Pyrococcus furiosus, amino acids 1-195; linker that replaces most of the coiled-coil and the Zn-hook; Rad50, Pyrococcus furiosus, amino acids 709-882; Measured within the MR^NBD complex with Mre11; also called D829A MR^NBD (LRET); source: labelled and passed over Superdex 200 Increase) MKLERVTVKNFRSHSDTVVEFKEGINLIIGQNGSGKSSLLDAILVGLYWPCRIKDIKKDEFTKVGARDTYIDLIFEKDGTKYRITRRFLKGYSSGEIHAMKRLVGNEWKHVTEPSSKAISAFMEKLIPYNIFLNAIYIRQGQIDAILESDEAREKVVREVLNLDKFETAYKKLSELKKTINNRIKEYRDILARTEGGAGGAGGRERVKKEIKDLEKAKDFTEELIEKVKKYKALAREAALSKIGELASEIFAEFTEGKYSEVVVRAEENKVRLFVVWEGKERPLTFLSGGERIALGLAFRLAMSLYLAGEISLLILDEPTPYLAEERRRKLITIMERYLKKIPQVILVSHDEELKDAADHVIRISLENGSSKVEVVS", 60),
    ("P. furiosus Rad50 nucleotide binding domain L51C/L828F, LRET-labelled (domain or fragment, Pyrococcus furiosus, Tb3+ chelate DTPA-cs124-EMPH (donor) or Bodipy FL maleimide (acceptor) on the cysteine L51C, Rad50, Pyrococcus furiosus, amino acids 1-195; linker that replaces most of the coiled-coil and the Zn-hook; Rad50, Pyrococcus furiosus, amino acids 709-882; Measured within the MR^NBD complex with Mre11; also called L828F MR^NBD (LRET); source: labelled and passed over Superdex 200 Increase) MKLERVTVKNFRSHSDTVVEFKEGINLIIGQNGSGKSSLLDAILVGLYWPCRIKDIKKDEFTKVGARDTYIDLIFEKDGTKYRITRRFLKGYSSGEIHAMKRLVGNEWKHVTEPSSKAISAFMEKLIPYNIFLNAIYIRQGQIDAILESDEAREKVVREVLNLDKFETAYKKLSELKKTINNRIKEYRDILARTEGGAGGAGGRERVKKEIKDLEKAKDFTEELIEKVKKYKALAREAALSKIGELASEIFAEFTEGKYSEVVVRAEENKVRLFVVWEGKERPLTFLSGGERIALGLAFRLAMSLYLAGEISLLILDEPTPYFDEERRRKLITIMERYLKKIPQVILVSHDEELKDAADHVIRISLENGSSKVEVVS", 30),
]

Data provenance is paper PMC7049730.
